- study.target: Somatostatin receptor type 4 (Homo sapiens) (UniProt P31391)
- Sequence (P31391 whole entry): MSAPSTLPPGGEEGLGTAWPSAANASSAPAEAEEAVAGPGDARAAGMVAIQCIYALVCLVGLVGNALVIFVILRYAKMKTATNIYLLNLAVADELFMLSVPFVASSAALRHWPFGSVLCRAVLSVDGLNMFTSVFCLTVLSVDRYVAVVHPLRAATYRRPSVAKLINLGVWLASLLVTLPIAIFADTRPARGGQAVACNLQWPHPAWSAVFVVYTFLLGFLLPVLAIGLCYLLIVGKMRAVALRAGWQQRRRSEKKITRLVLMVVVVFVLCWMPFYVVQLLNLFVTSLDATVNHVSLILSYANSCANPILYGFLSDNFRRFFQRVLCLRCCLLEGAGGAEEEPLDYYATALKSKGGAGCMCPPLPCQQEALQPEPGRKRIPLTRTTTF
- protocol.summary: Antagonist activity at human somatostatin receptor 4 assessed as inhibition of agonist-induced effect at 10 uM by GTPgamma[35S] binding-based assay
- Assay type: functional
measure.name: inhibition (%)
Supply the numeric figure in %, leaving out any unit text.

Worked set:
>>> print(df.to_string())
                            compound_string                              study_target  recorded_result
0        COc1ccc(C(=O)NCCCN(C)Cc2ccccc2)cc1  Somatostatin receptor type 4 (Homo sapiens) (UniProt P31391)               25
1  CN(CCCNC(=O)c1ccc(C(F)(F)F)cc1)Cc1ccccc1  Somatostatin receptor type 4 (Homo sapiens) (UniProt P31391)               17
2  CN(CCCNC(=O)c1ccc([N+](=O)[O-])cc1)Cc1ccccc1  Somatostatin receptor type 4 (Homo sapiens) (UniProt P31391)               15
3        CN(CCNC(=O)c1ccc(C#N)cc1)Cc1ccccc1  Somatostatin receptor type 4 (Homo sapiens) (UniProt P31391)               34
4  CN(CCNC(=O)c1ccc([N+](=O)[O-])cc1)Cc1ccccc1  Somatostatin receptor type 4 (Homo sapiens) (UniProt P31391)               30

The recorded inhibition for CN(CCCNC(=O)c1ccc(Br)cc1)Cc1ccccc1 is 4

* * *

- study.target: Alpha-1A adrenergic receptor (Homo sapiens)
- Sequence (whole entry): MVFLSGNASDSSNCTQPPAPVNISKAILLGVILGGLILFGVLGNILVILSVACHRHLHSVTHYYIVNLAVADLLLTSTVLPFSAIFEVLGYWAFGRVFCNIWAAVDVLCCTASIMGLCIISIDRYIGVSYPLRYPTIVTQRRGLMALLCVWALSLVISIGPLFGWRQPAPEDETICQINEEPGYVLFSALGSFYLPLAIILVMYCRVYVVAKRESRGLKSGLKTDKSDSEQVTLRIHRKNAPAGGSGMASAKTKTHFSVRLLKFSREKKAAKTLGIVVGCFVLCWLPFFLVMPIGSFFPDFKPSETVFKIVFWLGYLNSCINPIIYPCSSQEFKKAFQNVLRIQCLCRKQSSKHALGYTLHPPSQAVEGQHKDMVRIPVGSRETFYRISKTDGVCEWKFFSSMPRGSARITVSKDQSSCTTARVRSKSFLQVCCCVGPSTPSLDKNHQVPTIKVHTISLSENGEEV
- protocol.summary: Antagonist activity at recombinant human alpha-1a adrenergic receptor assessed as inhibition of agonist-induced […] reporter based assay
- Format: functional
Would you please tag the item satisfied when its inhibition is 90% or above, and not satisfied when it is below?

Completed entries (count: 3):
>>> df
                            compound_string          class
0       CN(CCCNC(=O)c1ccc(Cl)cc1)CCc1ccccc1      satisfied
1  CN(CCNC(=O)c1ccc([N+](=O)[O-])cc1)Cc1ccccc1  not satisfied
2         CN(CCNC(=O)c1ccc(Cl)cc1)Cc1ccccc1      satisfied

Answer whether inhibition of CN(CCNC(=O)c1ccc(C#N)cc1)Cc1ccccc1 is greater than or equal to 90%. not satisfied

Test whether the compound CN(CCCNC(=O)c1ccc([N+](=O)[O-])cc1)Cc1ccccc1 records inhibition of 90% or higher. satisfied

* * *

- study.target: UniProtKB P08908
- Sequence (P08908 whole entry): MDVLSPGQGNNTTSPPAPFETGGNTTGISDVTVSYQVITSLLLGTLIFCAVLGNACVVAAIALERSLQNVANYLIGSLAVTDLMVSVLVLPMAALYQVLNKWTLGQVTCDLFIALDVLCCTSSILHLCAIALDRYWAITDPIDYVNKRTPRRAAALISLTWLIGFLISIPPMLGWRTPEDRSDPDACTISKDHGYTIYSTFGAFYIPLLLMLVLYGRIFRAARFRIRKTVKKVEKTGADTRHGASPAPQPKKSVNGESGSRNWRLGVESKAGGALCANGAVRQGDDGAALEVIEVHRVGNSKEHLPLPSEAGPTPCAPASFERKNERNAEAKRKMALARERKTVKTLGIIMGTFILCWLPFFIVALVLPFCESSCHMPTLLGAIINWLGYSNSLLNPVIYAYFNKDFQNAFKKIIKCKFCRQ
- protocol.summary: Agonist activity at recombinant human 5-HT1A assessed as induction of cAMP levels at 10 uM by HTRF assay relative to agonist
- Assay type: functional
measure.name: Activity (%)
// note: answer is a bare numeric in %

>>> print(df.to_string())
                      compound_string      study_target  quantity_unit  recorded_result
0  CN(CCNC(=O)c1ccc(C#N)cc1)Cc1ccccc1  UniProtKB P08908              %                4
1  COc1cccc(C(=O)NCCCN(C)Cc2ccccc2)c1  UniProtKB P08908              %                0
2  CN(CCCNC(=O)c1cccc(Br)c1)Cc1ccccc1  UniProtKB P08908              %               -4

CN(CCCNC(=O)c1ccc(Cl)cc1)CCc1ccccc1 tested on UniProtKB P08908 gave Activity: 32

For the compound CCCc1ccc(C(=O)NCCCN(C)Cc2ccccc2)cc1 , the measured Activity on UniProtKB P08908 was -4

Measured on UniProtKB P08908, CN(CCCNC(=O)c1ccc(Br)cc1)Cc1ccccc1 has a documented Activity of 0

* * *

- study.target: Glutamate [NMDA] receptor (Homo sapiens) (UniProt Q05586+Q12879+Q13224+O15399+O60391+Q14957+Q8TCU5)
- protocol.summary: Antagonist activity at recombinant human NMDA receptor assessed as inhibition of agonist-induced cAMP levels at 10 uM
- Format: protein-complex assay
Classification field: enter condition met for inhibition values not below 5%, condition not met for values below it.

                       compound_string              class
0  CCCc1ccc(C(=O)NCCCN(C)Cc2ccccc2)cc1      condition met
1    CN(CCNC(=O)c1ccc(Cl)cc1)Cc1ccccc1  condition not met
2  CN(CCCNC(=O)c1ccc(Cl)cc1)CCc1ccccc1      condition met

Given the entry COc1cccc(C(=O)NCCCN(C)Cc2ccccc2)c1 , answer whether its inhibition meets or surpasses 5%. condition not met

Hello, I need to know if CN(CCCNC(=O)c1ccc([N+](=O)[O-])cc1)Cc1ccccc1 has measured inhibition not below 5%. Thanks! condition met

Kindly determine if inhibition recorded for CN(CCCNC(=O)c1ccc(C(F)(F)F)cc1)Cc1ccccc1 is above or exactly 5%. condition met

Has CN(CCNC(=O)c1ccc(C#N)cc1)Cc1ccccc1 a recorded inhibition greater than or equal to 5%? condition not met

API: above_or_equal(metric=inhibition, cutoff=5%) for item CN(CCNC(=O)c1ccc([N+](=O)[O-])cc1)Cc1ccccc1 condition not met

Kindly determine if inhibition recorded for CN(CCCNC(=O)c1ccc(Cl)cc1)Cc1ccccc1 is above or exactly 5%. condition met

* * *

In this section, each of the compounds is paired with its reported inhibition.
- study.target: UniProt:P25929
- Sequence (P25929 whole entry): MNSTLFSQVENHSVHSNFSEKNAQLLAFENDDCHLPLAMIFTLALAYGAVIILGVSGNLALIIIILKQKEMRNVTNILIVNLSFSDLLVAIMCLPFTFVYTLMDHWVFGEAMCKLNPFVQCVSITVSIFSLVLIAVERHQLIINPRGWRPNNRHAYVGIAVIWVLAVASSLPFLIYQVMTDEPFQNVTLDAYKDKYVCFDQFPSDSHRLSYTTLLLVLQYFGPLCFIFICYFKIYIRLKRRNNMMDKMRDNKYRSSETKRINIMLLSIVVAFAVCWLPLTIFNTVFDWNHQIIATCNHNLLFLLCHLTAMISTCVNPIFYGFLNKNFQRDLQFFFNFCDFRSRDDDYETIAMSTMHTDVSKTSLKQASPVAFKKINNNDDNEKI
- protocol.summary: Antagonist activity at recombinant human NPY1R assessed as inhibition of agonist-induced cAMP levels at 10 uM by HTRF assay
- Format: functional
Report as a plain number; the unit % is understood.

>>> print(df.to_string())
                            compound_string  measure_name  quantity_unit  recorded_result
0       CCCc1ccc(C(=O)NCCCN(C)Cc2ccccc2)cc1    inhibition              %               -7
1         CN(CCNC(=O)c1ccc(Cl)cc1)Cc1ccccc1    inhibition              %               -1
2  CN(CCNC(=O)c1ccc([N+](=O)[O-])cc1)Cc1ccccc1    inhibition              %               -1
3        COc1ccc(C(=O)NCCCN(C)Cc2ccccc2)cc1    inhibition              %                1
4        COc1cccc(C(=O)NCCCN(C)Cc2ccccc2)c1    inhibition              %                3

Per the records, this compound ( CN(CCNC(=O)c1ccc(C#N)cc1)Cc1ccccc1 ) has inhibition equal to -2

* * *

- study.target: Mu-type opioid receptor (Homo sapiens)
- protocol.summary: Agonist activity at recombinant human mu-type opioid receptor at 10 uM by GTPgamma[35S] binding-based assay relative to agonist
- Assay type: functional
measure.name: Activity (%)
Reply numerically in %, unit not repeated.

Reference set, count: 5
>>> df
                            compound_string                            study_target  quantity_unit  recorded_result
0       CCCc1ccc(C(=O)NCCCN(C)Cc2ccccc2)cc1  Mu-type opioid receptor (Homo sapiens)              %               31
1        CN(CCCNC(=O)c1ccc(Br)cc1)Cc1ccccc1  Mu-type opioid receptor (Homo sapiens)              %               39
2  CN(CCNC(=O)c1ccc([N+](=O)[O-])cc1)Cc1ccccc1  Mu-type opioid receptor (Homo sapiens)              %               60
3  CN(CCCNC(=O)c1ccc([N+](=O)[O-])cc1)Cc1ccccc1  Mu-type opioid receptor (Homo sapiens)              %               31
4        COc1ccc(C(=O)NCCCN(C)Cc2ccccc2)cc1  Mu-type opioid receptor (Homo sapiens)              %               16

For this molecule ( CN(CCCNC(=O)c1ccc(Cl)cc1)CCc1ccccc1 ), measured Activity is 22

Activity measured on CN(CCNC(=O)c1ccc(C#N)cc1)Cc1ccccc1 = 66

Kindly note the recorded Activity for CN(CCCNC(=O)c1ccc(C(F)(F)F)cc1)Cc1ccccc1 , which is 43
